Molecular target: T1, O15-bS
T1 chain: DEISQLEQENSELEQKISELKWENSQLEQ
Experiment: two-hybrid library CCNG1;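 note: natural log of median RNA to DNA barcode read ratio; higher means stronger binding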
measurement.label: interaction score

* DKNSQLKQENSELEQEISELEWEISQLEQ [O1-bS] | -0.914
* DKNSQLKQKISELKQKNSELKWEISQLEQ [O13-bS] | -2.27
* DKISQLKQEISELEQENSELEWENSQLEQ [O11-bS] | -0.753

1 = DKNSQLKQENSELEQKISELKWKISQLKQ [O10-bS]
2 = DEISQLEQENSELEQKISELKWENSQLEQ [O15-bS]
3 = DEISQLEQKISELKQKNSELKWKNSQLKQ [O12-bS]
4 = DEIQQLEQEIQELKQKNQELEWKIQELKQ [4H118-bN]
Order by interaction score, ascending. Use the labels to give the ranking in the order requested. 4, 2, 3, 1
